- tested-system: recombinant homotrimeric HA A/Hong Kong/2108/03 H9N2 (Influenza A virus A/HK/2108/2003(H9N2))
- test-description: protein microarray, purified IgG, trimeric HA
- assay-setup: remark: other sources report otherwise
The threshold is inclusive: Trimeric HA Binding: RLU of exactly 200 RLU counts as met; values below receive not met.

[in] Decide: is the reported value of Trimeric HA Binding: RLU for TCN-528 (5087_P17) (antibody, V domains shown) VH: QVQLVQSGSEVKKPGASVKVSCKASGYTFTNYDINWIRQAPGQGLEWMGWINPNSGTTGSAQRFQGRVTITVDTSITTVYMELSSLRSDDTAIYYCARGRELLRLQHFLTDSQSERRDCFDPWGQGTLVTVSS VL: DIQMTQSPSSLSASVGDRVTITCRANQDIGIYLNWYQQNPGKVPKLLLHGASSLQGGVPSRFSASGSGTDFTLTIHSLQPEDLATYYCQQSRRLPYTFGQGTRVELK equal to or greater than 200 RLU?
[out] met

[in] Decide: is the reported value of Trimeric HA Binding: RLU for TCN-553 (5261_C18) (antibody, V domains shown) VH: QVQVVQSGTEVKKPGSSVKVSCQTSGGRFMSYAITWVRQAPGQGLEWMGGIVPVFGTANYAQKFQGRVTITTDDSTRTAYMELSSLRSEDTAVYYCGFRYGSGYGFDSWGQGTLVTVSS VL: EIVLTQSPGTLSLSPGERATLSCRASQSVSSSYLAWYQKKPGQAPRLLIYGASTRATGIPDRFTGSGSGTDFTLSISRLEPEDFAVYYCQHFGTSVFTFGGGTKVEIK equal to or greater than 200 RLU?
[out] not met

[in] Decide: is the reported value of Trimeric HA Binding: RLU for TCN-543 (5081_G23) (antibody, V domains shown) VH: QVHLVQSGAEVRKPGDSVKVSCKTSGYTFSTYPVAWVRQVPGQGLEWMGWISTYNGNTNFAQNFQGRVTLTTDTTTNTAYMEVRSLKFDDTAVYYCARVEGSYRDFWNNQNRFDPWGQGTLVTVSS VL: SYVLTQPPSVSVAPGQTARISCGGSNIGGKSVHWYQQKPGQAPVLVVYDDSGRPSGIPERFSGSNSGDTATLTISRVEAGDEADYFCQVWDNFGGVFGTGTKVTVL equal to or greater than 200 RLU?
[out] not met

[in] Decide: is the reported value of Trimeric HA Binding: RLU for TCN-523 (5248_A17) (antibody, V domains shown) VH: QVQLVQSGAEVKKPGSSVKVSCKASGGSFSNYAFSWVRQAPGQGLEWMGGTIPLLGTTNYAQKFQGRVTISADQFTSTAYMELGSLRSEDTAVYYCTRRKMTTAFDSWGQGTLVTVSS VL: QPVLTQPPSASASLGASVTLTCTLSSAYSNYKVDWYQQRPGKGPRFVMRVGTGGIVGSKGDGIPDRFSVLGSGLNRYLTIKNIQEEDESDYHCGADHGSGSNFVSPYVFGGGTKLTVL equal to or greater than 200 RLU?
[out] not met

[in] Decide: is the reported value of Trimeric HA Binding: RLU for TCN-537 (3194_D21) (antibody, V domains shown) VH: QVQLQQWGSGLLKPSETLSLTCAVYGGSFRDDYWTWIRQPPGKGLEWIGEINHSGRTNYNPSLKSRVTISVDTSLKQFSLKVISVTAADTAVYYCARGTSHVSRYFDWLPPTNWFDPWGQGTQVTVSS VL: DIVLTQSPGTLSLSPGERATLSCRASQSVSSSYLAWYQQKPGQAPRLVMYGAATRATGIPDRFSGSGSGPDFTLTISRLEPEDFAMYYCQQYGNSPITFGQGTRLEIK equal to or greater than 200 RLU?
[out] not met
